Reference source for all entries: patent US10435400B2

system tested: EGFR WT kinase (Homo sapiens (Human), UniProt P00533)
Sequence (P00533 25-1210): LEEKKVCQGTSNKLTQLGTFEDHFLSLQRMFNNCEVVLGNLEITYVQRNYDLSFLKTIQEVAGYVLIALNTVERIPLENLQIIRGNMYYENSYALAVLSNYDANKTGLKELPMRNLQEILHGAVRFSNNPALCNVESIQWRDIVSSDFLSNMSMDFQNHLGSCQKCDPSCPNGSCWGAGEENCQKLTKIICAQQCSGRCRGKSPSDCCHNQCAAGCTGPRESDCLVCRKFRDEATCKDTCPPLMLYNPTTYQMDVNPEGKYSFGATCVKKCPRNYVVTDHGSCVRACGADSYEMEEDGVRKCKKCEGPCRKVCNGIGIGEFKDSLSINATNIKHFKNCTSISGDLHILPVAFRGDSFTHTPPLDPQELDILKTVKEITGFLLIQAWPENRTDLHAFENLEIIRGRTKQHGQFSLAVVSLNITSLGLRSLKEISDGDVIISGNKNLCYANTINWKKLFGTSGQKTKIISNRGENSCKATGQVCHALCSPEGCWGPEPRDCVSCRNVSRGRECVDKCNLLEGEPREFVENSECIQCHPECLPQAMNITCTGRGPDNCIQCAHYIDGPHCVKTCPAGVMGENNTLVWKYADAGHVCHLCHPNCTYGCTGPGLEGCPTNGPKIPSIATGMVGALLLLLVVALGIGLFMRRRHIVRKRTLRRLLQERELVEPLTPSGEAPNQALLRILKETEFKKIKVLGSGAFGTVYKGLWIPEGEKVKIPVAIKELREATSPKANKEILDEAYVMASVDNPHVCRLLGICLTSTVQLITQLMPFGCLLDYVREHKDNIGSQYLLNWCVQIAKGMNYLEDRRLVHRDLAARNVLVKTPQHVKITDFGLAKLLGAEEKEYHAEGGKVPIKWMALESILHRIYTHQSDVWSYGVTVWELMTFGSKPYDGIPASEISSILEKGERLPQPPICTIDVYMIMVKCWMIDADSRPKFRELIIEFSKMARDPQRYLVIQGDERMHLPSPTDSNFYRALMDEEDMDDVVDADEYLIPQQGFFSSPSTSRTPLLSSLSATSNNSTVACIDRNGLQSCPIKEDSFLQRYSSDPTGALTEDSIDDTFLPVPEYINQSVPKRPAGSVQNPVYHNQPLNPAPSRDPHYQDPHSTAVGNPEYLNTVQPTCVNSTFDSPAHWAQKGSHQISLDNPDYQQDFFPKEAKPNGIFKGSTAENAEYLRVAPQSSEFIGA
protocol text: Wild type EGFR kinase inhibition test (z-lyte)
Format: biochemical
test parameters: 10 μM ATP
I'd appreciate it if you could supply log10 of IC50 values for the items below.
Response schema: value (number) is log10 of IC50 in units of nM.

Requested field: log10 of IC50. Item: C=CC(=O)Nc1cc(Nc2nccc(-c3cnc4c(cnn4C)c3)n2)c(OC)cc1N1CCC(N(C)C)CC1 [Compound Z-4]
1.65

Requested field: log10 of IC50. Item: C=CC(=O)Nc1cc(Nc2nccc(-c3cnc4c(cnn4C)c3)n2)c(OC)cc1N(C)CCN(C)C [Compound Z-6]
1.00

Requested field: log10 of IC50. Item: C=CC(=O)Nc1cc(Nc2ncc(Cl)c(-c3cnc4c(cnn4C)c3)n2)c(OC)cc1N1CCC(N(C)C)CC1 [Compound Z-40]
2.37

Requested field: log10 of IC50. Item: C=CC(=O)Nc1cc(Nc2ncc(F)c(-c3cnn(C)c3)n2)c(OC)cc1N1CCC(N(C)C)CC1 [Compound Z-90]
2.01

Requested field: log10 of IC50. Item: C=CC(=O)Nc1cc(Nc2ncc(F)c(-c3cnc4c(cnn4C)c3)n2)c(OC)cc1N1CCC(N(C)C)CC1 [Compound Z-37]
1.95

Requested field: log10 of IC50. Item: C=CC(=O)Nc1cc(Nc2ncc(Cl)c(-c3cn(C)nc3C)n2)c(OC)cc1N1CCC(N(C)C)CC1 [Compound Z-95]
2.52

Requested field: log10 of IC50. Item: C=CC(=O)Nc1cc(Nc2ncc(Cl)c(-c3cnc4c(ccn4C)c3)n2)c(OC)cc1NCCCN(C)C [Compound Z-114]
2.06
